- ASSAY: Caco-2 permeability of ADC payload
- Format: in vitro ADME
- RECORDED_CONDITIONS: human, Caco-2, A-B; corresponding free payload; read-out: Perm. Mean Caco 2 A-B Perm (10e−6 cm/s)

| SMILES_REPR | Papp A→B at 2 h, 10 NM (×10⁻⁶ cm/s) |
| --- | --- |
| CC[C@H](O)[C@@H](C)[C@H]1O[C@@H]1C[C@@](C)(O)/C=C/C=C(\C)[C@H]1OC(=O)C[C@H](O)CC[C@@](C)(O)[C@@H](OC(=O)N2CCNCC2)/C=C/[C@@H]1C | 0.17 |

====

- ASSAY: Caco-2 permeability of ADC payload
- Assay type: in vitro ADME
- RECORDED_CONDITIONS: human, Caco-2, B-A; corresponding free payload; read-out: Perm. Mean Caco 2 B-A Perm (10e−6 cm/s)
MEASURED_METRIC: Papp B→A at 2 h, 10 NM (×10⁻⁶ cm/s)

| MOLECULE | OBS_VALUE |
| --- | --- |
| CC[C@H](O)[C@@H](C)[C@H]1O[C@@H]1C[C@@](C)(O)/C=C/C=C(\C)[C@H]1OC(=O)C[C@H](O)CC[C@@](C)(O)[C@@H](OC(=O)N2CCNCC2)/C=C/[C@@H]1C [D12] | 0.23 |

Data origin: patent US11945807B2
